# experimental.target: Bromodomain-containing protein 4 (Homo sapiens, UniProt O60885)
# method.summary: Binding affinity to human recombinant His6-tagged BRD4 bromodomain 1 (N44 to E168 residues) expressed in Escherichia coli BL21 (DE3) cells assessed as change in melting temperature at 200 uM incubated for 30 mins by SYPRO orange dye based thermal shift assay
attribute.measured: ΔTm (°C)
Numbers only, in °C.

| compound | display.unit | obs.value |
| --- | --- | --- |
| COc1ccc(OC)c(S(=O)(=O)Nc2cc3c(C)noc3cc2C)c1 | °C | 2 |
| Cc1cc2onc(C)c2cc1NS(=O)(=O)c1cccc(Cl)c1Cl | °C | 4 |
| Cc1noc2ccc(-c3nc4ccc(N5CCOCC5)cc4n3Cc3ccccc3)cc12 | °C | 6 |
| CCC(C)n1c(-c2ccc3onc(C)c3c2)nc2ccc(N3CCOCC3)cc21 (configuration not stated) | °C | 4.8 |
| CCCCn1c(-c2cc(Br)c3onc(C)c3c2)nc2ccc(N3CCOCC3)cc21 | °C | 7.2 |

// batch mode: one ΔTm value per listed entry
1. COc1ccccc1S(=O)(=O)Nc1cc2c(C)noc2cc1C
2. Cc1cc2onc(C)c2cc1NS(=O)(=O)c1cc(Cl)ccc1Cl
3. COC(=O)c1ccccc1S(=O)(=O)Nc1cc2c(C)noc2cc1C
4. COc1cc2onc(C)c2cc1NS(=O)(=O)c1cc(Cl)ccc1OC
5. Cc1noc2c(Br)cc(-c3nc4ccc(N5CCOCC5)cc4n3CC3CC3)cc12
6. COc1ccc(Br)cc1S(=O)(=O)Nc1cc2c(C)noc2cc1OCC(=O)NCCN1CCOCC1
7. CCCCS(=O)(=O)Nc1cc2c(C)noc2cc1C

A.
1. 6.6
2. 5
3. 3
4. 8.7
5. 6
6. 4.8
7. 5

// batch mode: one ΔTm value per listed entry
1. CCCn1c(-c2ccc3onc(C)c3c2)nc2ccc(N3CCOCC3)cc21
2. Cc1cc2onc(C)c2cc1NS(=O)(=O)c1ccccc1
3. Cc1cc2onc(C)c2cc1NS(=O)(=O)c1ccccc1Cl

A.
6.5
2
5.2

// batch mode: one ΔTm value per listed entry
1. COc1ccc(S(=O)(=O)Nc2cc3c(C)noc3cc2C)cc1
2. Cc1noc2c(Br)cc(-c3nc4ccc(N5CCOCC5)cc4n3CC3CCCCC3)cc12
3. CCCS(=O)(=O)Nc1cc2c(C)noc2cc1C
4. CCNC(=O)COc1cc2onc(C)c2cc1NS(=O)(=O)c1cc(Br)ccc1OC
5. Cc1cc2onc(C)c2cc1NS(=O)(=O)c1ccccc1Br
6. COCCn1c(-c2cc(Br)c3onc(C)c3c2)nc2ccc(N3CCOCC3)cc21

A.
1.5
9.2
4.5
5.1
4.4
4.5

Q. If you can, please state the reported ΔTm value of "Cc1noc2ccc(-c3nc4ccc(N5CCOCC5)cc4n3CC3CC3)cc12" .
A. 6.5

---

Please go through the items and note down their IC50.
# Tested on: HFL1
# method.summary: Cytotoxicity against human HFL1 cells assessed as reduction in cell viability incubated for 72 hrs by cell-titer glo assay
# Assay type: cell-based
# stated.conditions: HFL1, 72 h
Give bare numbers, in µM.

| smiles.code | display.unit | IC50 |
| --- | --- | --- |
| COc1cc2onc(C)c2cc1NS(=O)(=O)c1cc(Br)ccc1OC | µM | 18.2 |

Q. If you can, please state the reported IC50 value of "Cc1noc2ccc(-c3nc4ccc(N5CCOC[C@@H]5C)cc4n3CC3CCCCC3)cc12" .
A. 15.9

The origin of these recorded values is ChEMBL document CHEMBL4765238.
